Measurement description: Determination of compound Cmax and AUC after oral gavage (plasma LC-MS/MS)
Assay type: in vivo, Sprague-Dawley rats
Condition info: Sprague-Dawley, rat, plasma, po, Structure (I) examples, Table 15, actual oral dose 3-15 mg/kg, plasma 0.5-4 h
Assay metric: Cmax

CCN(CC)c1ccc(NC(=O)c2cccc(CCCOCCOCCOCCOCCOCCOCCOCCOCCOC)c2)c(-c2cc(C(=O)N[C@H]3CCCc4ccccc43)ccn2)c1 :: < 50 ng/mL

Hey, can you go through the list below and give me Cmax for every item?
1. CCN(CC)c1ccc(NC(=O)c2cccc(CCCOCCOCCOCCOCCNS(=O)(=O)c3ccc(CCC(=O)O)cc3)c2)c(-c2cc(C(=O)NCc3cccc(C(F)(F)F)c3)ccn2)c1
2. O=C(O)c1cccc(SCc2cccc(C(=O)Nc3ccc(Cl)cc3-c3cc(C(=O)NCc4cccc(C(F)(F)F)c4)ccn3)c2)c1

1: < 10 ng/mL; 2: < 30 ng/mL

Hey, can you go through the list below and give me Cmax for every item?
1. CCN(CC)c1ccc(NC(=O)c2cccc(COCCOCCOCCOCCOCCOCCO)c2)c(-c2cc(C(=O)NCc3cccc(C(F)(F)F)c3)ccn2)c1
2. O=C(O)c1cccc(SCc2cccc(C(=O)Nc3ccc(N4CCCCC4)cc3-c3cc(C(=O)NCc4cccc(C(F)(F)F)c4)ccn3)c2)c1

1: < 10 ng/mL; 2: < 10 ng/mL

Reported Cmax for O=C(O)CCCNC(=O)Cc1cccc(SCc2cccc(C(=O)Nc3ccc(N4CCCCC4)cc3-c3cc(C(=O)NCc4cccc(C(F)(F)F)c4)ccn3)c2)c1 : what is it?
> 50 ng/mL

====

Can you tell me AUC for the items I'm about to list?
Measurement description: Determination of compound Cmax and AUC after oral gavage (plasma LC-MS/MS)
Type: in vivo, Sprague-Dawley rats
Condition info: Sprague-Dawley, rat, plasma, po, Structure (I) examples, Table 15, actual oral dose 15-40 mg/kg, plasma 0.5-4 h
Experimental: Sprague-Dawley rats were orally gavaged with test article at a nominal dose of 2.5 or 10 mg/kg and blood was collected at 0.5, 1, 2 and 4 h. Blood samples were processed to plasma using K2EDTA as an anticoaglulant. […] Supernatants were analyzed by LC-MS/MS and compound concentrations were determined by interpolation from a standard curve prepared in plasma. All compounds were orally dosed at the dosage shown, and pharmacokinetic parameters determined. […]

Below are worked cases with known answers.
CN(CCOCCOCCOCCC(=O)O)C(=O)Cc1cccc(SCc2cccc(C(=O)Nc3ccc(Cl)cc3-c3cc(C(=O)N[C@H]4CCCc5ccccc54)ccn3)c2)c1 :: < 30 ng·h/mL
CCN(CC)c1ccc(NC(=O)c2cccc(CCCOCCOCCOCCOCCOCCC(=O)O)c2)c(-c2cc(C(=O)NCc3cccc(C(F)(F)F)c3)ccn2)c1 :: < 30 ng·h/mL
CCN(CC)c1ccc(NC(=O)c2cccc(CCCOCCOCCOCCOCCNC(=O)c3cccc(CCCOCCOCCOCCOCCOCCOCCOCCOCCOC)c3)c2)c(-c2cc(C(=O)NCc3cccc(C(F)(F)F)c3)ccn2)c1 :: > 50 ng·h/mL
CCN(CC)c1ccc(NC(=O)c2cccc(CCCOCCOCCOCCOCCNS(=O)(=O)c3ccc(C(=O)N(CCOC)CCOCCOCCOCCOCCOCCOCCOC)cc3)c2)c(-c2cc(C(=O)NCc3cccc(C(F)(F)F)c3)ccn2)c1 :: < 10 ng·h/mL

Reported AUC for CCN(CC)c1ccc(NC(=O)c2cccc(CCCOCCOCCOCCOCCOCCOCCC(=O)O)c2)c(-c2cc(C(=O)NCc3cccc(C(F)(F)F)c3)ccn2)c1 : what is it?
< 30 ng·h/mL
